Entries annotated with measured logP
assay-method-text: log P by HPLC on reversed-phase column (C18), EEC Directive 79/831 Annex V.A8
Type: physicochemical
condition-set: Method A: 40° C., 0.1% aqueous formic acid and acetonitrile
test-readout: logP

[
  {
    "smiles-entry": "C[Si](C)(C)c1ccccc1Oc1cnc2c(F)c(F)ccc2n1",
    "reported-measurement": 5.28
  },
  {
    "smiles-entry": "C[Si](C)(C)c1ccccc1Nc1cnc2c(F)c(F)ccc2n1",
    "reported-measurement": 4.49
  },
  {
    "smiles-entry": "Cc1nc2c(F)c(F)ccc2cc1Oc1cc(N)ccc1[Si](C)(C)C",
    "reported-measurement": 4.59
  },
  {
    "smiles-entry": "Cc1nc2c(F)c(F)ccc2cc1Oc1cccc(F)c1[Si](C)(C)c1cccs1",
    "reported-measurement": 5.65
  },
  {
    "smiles-entry": "C[Si](C)(C)c1c(F)cccc1Oc1cnc2ccnn2c1",
    "reported-measurement": 4.23
  },
  {
    "smiles-entry": "C[Si](C)(C)c1c(F)cccc1Oc1cc2ccccc2nc1O",
    "reported-measurement": 3.85
  },
  {
    "smiles-entry": "Cc1nc2ccccc2cc1Oc1ccc(-c2ccsc2)cc1[Si](C)(C)C",
    "reported-measurement": 5.85
  },
  {
    "smiles-entry": "Cc1nc2c(F)c(F)ccc2cc1Oc1cc([N+](=O)[O-])ccc1[Si](C)(C)C",
    "reported-measurement": 5.34
  },
  {
    "smiles-entry": "C[Si](C)(c1ccccc1)c1ccccc1Cc1cnc2cccnc2c1",
    "reported-measurement": 4.14
  },
  {
    "smiles-entry": "Cc1nc2c(F)c(F)ccc2nc1Oc1c(F)cccc1[Si](C)(C)O",
    "reported-measurement": 3.62
  },
  {
    "smiles-entry": "C[Si](C)(C)c1c(F)cccc1Oc1cc2ccccc2nc1Cl",
    "reported-measurement": 5.90
  },
  {
    "smiles-entry": "C[Si](C)(C)c1c(F)cccc1Oc1cc2ccccc2nc1-c1ccccc1",
    "reported-measurement": 6.40
  },
  {
    "smiles-entry": "C[Si](C)(Cc1ccccc1)c1ccccc1Cc1cnc2ccccc2c1",
    "reported-measurement": 4.94
  },
  {
    "smiles-entry": "COc1ccc([Si](C)(C)c2c(F)cccc2Oc2nc3ccccc3nc2C)cc1",
    "reported-measurement": 5.35
  },
  {
    "smiles-entry": "CC[Si](C)(C)c1c(F)cccc1Oc1cnc2ccccc2c1",
    "reported-measurement": 5.47
  },
  {
    "smiles-entry": "C[Si](C)(O)c1cc(F)ccc1Oc1cnc2c(Cl)cccc2c1",
    "reported-measurement": 3.50
  },
  {
    "smiles-entry": "C[Si](C)(O)c1ccccc1Oc1cnc2c(F)cnn2c1",
    "reported-measurement": 2.50
  },
  {
    "smiles-entry": "C[Si](C)(C)c1c(F)cccc1Oc1cc2ccccc2nc1C(F)F",
    "reported-measurement": 5.45
  },
  {
    "smiles-entry": "CSc1nc2ccccc2cc1Oc1cccc(F)c1[Si](C)(C)C",
    "reported-measurement": 6.79
  },
  {
    "smiles-entry": "Cc1nc2c(F)c(F)ccc2nc1Oc1cccc(OC(F)(F)F)c1[Si](C)(C)O",
    "reported-measurement": 4.34
  },
  {
    "smiles-entry": "C=Cc1nc2ccccc2cc1Oc1cccc(F)c1[Si](C)(C)C",
    "reported-measurement": 6.30
  },
  {
    "smiles-entry": "Cc1nc2ccccc2cc1Oc1ccc(-c2ccccc2)cc1[Si](C)(C)C",
    "reported-measurement": 6.27
  },
  {
    "smiles-entry": "C[Si](C)(C)c1cc(F)ccc1Oc1cnc2c(Cl)cccc2c1",
    "reported-measurement": 5.62
  },
  {
    "smiles-entry": "CC[Si](C)(C)c1ccccc1Oc1cnc2c(c1)CCCC2",
    "reported-measurement": 3.68
  },
  {
    "smiles-entry": "Cc1c(Nc2ccccc2[Si](C)(C)C)cc2ccccc2[n+]1[O-]",
    "reported-measurement": 3.62
  },
  {
    "smiles-entry": "Cc1nc2ccccc2nc1Oc1cccc(F)c1[Si](C)(C)c1ccccc1",
    "reported-measurement": 5.59
  },
  {
    "smiles-entry": "C[Si](C)(C)c1c(F)cccc1Nc1cc2ccccc2nc1C(F)F",
    "reported-measurement": 5.68
  },
  {
    "smiles-entry": "Cc1nc2c(F)c(F)ccc2cc1Oc1cccc(OC(F)(F)F)c1[Si](C)(C)O",
    "reported-measurement": 4.20
  },
  {
    "smiles-entry": "C[Si](C)(O)c1c(F)cccc1Oc1cnc2c(F)c(F)ccc2n1",
    "reported-measurement": 3.33
  },
  {
    "smiles-entry": "Cc1nc2c(F)c(F)ccc2nc1Oc1ccccc1[Si](C)(C)O",
    "reported-measurement": 3.35
  },
  {
    "smiles-entry": "C[Si](C)(C)c1ccccc1Oc1cnc2ccccc2n1",
    "reported-measurement": 5.05
  }
]
